- PROTOCOL SUMMARY: in vivo
- PARTICULARS: cynomolgus monkey, iv, 2 mg/kg
OUTCOME MEASURE: CL renal
Please state the number and follow it with the unit.

Ask | Return reported CL renal; argument: C[C@H]1CN2CCNCc3ccc(C(=O)NCC(F)F)c1c32 [(+)-19m]
Reply | 1.8 mL/h/kg

---

- TESTED TARGET: CYP2C19 (Homo sapiens, UniProt P33261)
- Sequence (P33261 whole entry): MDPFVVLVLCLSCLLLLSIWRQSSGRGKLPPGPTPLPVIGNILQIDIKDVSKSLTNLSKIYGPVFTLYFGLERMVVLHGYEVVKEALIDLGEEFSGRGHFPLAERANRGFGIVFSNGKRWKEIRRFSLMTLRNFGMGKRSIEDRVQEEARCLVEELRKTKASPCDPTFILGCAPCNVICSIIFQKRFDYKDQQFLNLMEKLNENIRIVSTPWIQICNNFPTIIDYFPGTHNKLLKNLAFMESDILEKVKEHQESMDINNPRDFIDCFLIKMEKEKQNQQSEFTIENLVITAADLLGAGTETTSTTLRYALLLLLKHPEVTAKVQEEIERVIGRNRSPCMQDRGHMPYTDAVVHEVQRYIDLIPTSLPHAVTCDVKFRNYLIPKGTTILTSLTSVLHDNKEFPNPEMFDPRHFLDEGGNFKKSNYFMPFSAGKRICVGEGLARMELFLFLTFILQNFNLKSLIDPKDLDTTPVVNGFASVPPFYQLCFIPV
OUTCOME MEASURE: IC50

Ask | Given the compound C[C@H]1CN2CCNCc3ccc(C(=O)NCC(F)F)c1c32 [(+)-19m] , what is its reported IC50?
Reply | > 30 µM
